SUBJECT_OF_TEST: cercarial protease (Schistosoma mansoni, UniProt P12546)
Construct: Serine protease was isolated from the acetabular glands of cercariae as described previously in McKerrow et al., 1985
Sequence (P12546 28-264): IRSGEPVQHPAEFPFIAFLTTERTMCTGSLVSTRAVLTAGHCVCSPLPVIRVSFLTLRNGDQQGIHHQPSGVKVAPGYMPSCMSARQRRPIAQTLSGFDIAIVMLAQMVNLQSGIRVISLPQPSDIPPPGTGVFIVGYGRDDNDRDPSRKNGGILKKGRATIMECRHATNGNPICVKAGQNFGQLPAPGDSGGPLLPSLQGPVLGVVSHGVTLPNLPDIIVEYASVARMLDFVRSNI
PROTOCOL: biochemical
Where a SMILES comes first, the peptide text is derived from it. The star is where a group is joined. MeOSuc = COC(=O)CCC(=O)*; CH2Cl = ClC*
ENDPOINT_LABEL: log10 of Ki (log10 of the value in µM)
Values reflect log10 of reported Ki (µM).

Example results:
MOLECULE: COC(=O)CCC(=O)N[C@@H](C)C(=O)N[C@@H](CCCCN)C(=O)N1CCC[C@H]1C(=O)N[C@@H](Cc1ccccc1)C(=O)CCl
SUBJECT_OF_TEST: cercarial protease (Schistosoma mansoni, UniProt P12546)
log10 of Ki: 0.85

MOLECULE: COC(=O)CCC(=O)N[C@@H](C)C(=O)N[C@@H](C)C(=O)N1CCC[C@H]1C(=O)N[C@@H](Cc1ccccc1)C(=O)CCl [MeO-Suc-Ala-Ala-Pro-Phe-CMK] (MeOSuc-AAPF-CH2Cl)
SUBJECT_OF_TEST: cercarial protease (Schistosoma mansoni, UniProt P12546)
log10 of Ki: 1.11

MOLECULE: COC(=O)CCC(=O)N[C@@H](Cc1c[nH]c2ccccc12)C(=O)N[C@@H](C)C(=O)N1CCC[C@H]1C(=O)N[C@@H](Cc1ccccc1)C(=O)CCl [MeO-Suc-Trp-Ala-Pro-Phe-CMK] (MeOSuc-WAPF-CH2Cl)
SUBJECT_OF_TEST: cercarial protease (Schistosoma mansoni, UniProt P12546)
log10 of Ki: 1.08

MOLECULE: COC(=O)CCC(=O)N[C@@H](C)C(=O)N[C@@H](C)C(=O)N1CCC[C@H]1C(=O)N[C@@H](CC(C)C)C(=O)CCl [MeO-Suc-Ala-Ala-Pro-Leu-CMK] (MeOSuc-AAPL-CH2Cl)
SUBJECT_OF_TEST: cercarial protease (Schistosoma mansoni, UniProt P12546)
log10 of Ki: 1.08

MOLECULE: COC(=O)CCC(=O)N[C@@H](Cc1ccccc1)C(=O)N[C@@H](C)C(=O)N1CCC[C@H]1C(=O)N[C@@H](Cc1ccccc1)C(=O)CCl [MeO-Suc-Phe-Ala-Pro-Phe-CMK] (MeOSuc-FAPF-CH2Cl)
SUBJECT_OF_TEST: cercarial protease (Schistosoma mansoni, UniProt P12546)
log10 of Ki: 0.00

MOLECULE: COC(=O)CCC(=O)N[C@@H](C)C(=O)N[C@@H](C)C(=O)N1CCC[C@H]1C(=O)N[C@@H](Cc1c[nH]c2ccccc12)C(=O)CCl [MeO-Suc-Ala-Ala-Pro-Trp-CMK] (MeOSuc-AAPW-CH2Cl)
SUBJECT_OF_TEST: cercarial protease (Schistosoma mansoni, UniProt P12546)
log10 of Ki: 1.30

Here is the next item to consider.
Please report the recorded log10 of Ki for COC(=O)CCC(=O)N[C@@H](Cc1c[nH]c2ccccc12)C(=O)N[C@@H](C)C(=O)N1CCC[C@H]1C(=O)N[C@@H](CC(C)C)C(=O)CCl [MeO-Suc-Trp-Ala-Pro-Leu-CMK] (MeOSuc-WAPL-CH2Cl) . 0.30

---

Here, each record is paired with measured Km data.
SUBJECT_OF_TEST: cercarial protease (Schistosoma mansoni)
Construct: Serine protease was isolated from the acetabular glands of cercariae as described previously in McKerrow et al., 1985; from tissue; host or cells: acetabular glands of cercariae
Type: biochemical
CONDITION_DETAILS: substrate hydrolysis, 100 mM glycine/NaOH, 2 mM CaCl2, pH 9.0; Lineweaver-Burk
Where a SMILES comes first, the peptide text is derived from it. [ ]: non-standard residue; d: D form. The star is where a group is joined. pNA = O=[N+]([O-])c1ccc(N*)cc1; MeOSuc = COC(=O)CCC(=O)*; Nle = CCCC[C@H](N)C(=O)O; SBn = c1ccc(CS*)cc1

COMPOUND: COC(=O)CCC(=O)N[C@@H](C)C(=O)N[C@@H](C)C(=O)N1CCC[C@H]1C(=O)N[C@@H](Cc1ccccc1)C(=O)SCc1ccccc1 [MeO-Suc-Ala-Ala-Pro-Phe-Sbzl] (MeOSuc-AAPF-SBn)
SUBJECT_OF_TEST: cercarial protease (Schistosoma mansoni)
Km: 96 µM
--
COMPOUND: COC(=O)CCC(=O)N[C@@H](Cc1ccccc1)C(=O)N[C@@H](C)C(=O)N1CCC[C@H]1C(=O)N[C@@H](Cc1ccccc1)C(=O)SCc1ccccc1 [MeO-Suc-Phe-Ala-Pro-Phe-Sbzl] (MeOSuc-FAPF-SBn)
SUBJECT_OF_TEST: cercarial protease (Schistosoma mansoni)
Km: 244 µM
--
COMPOUND: COC(=O)CCC(=O)N[C@@H](C)C(=O)N[C@@H](C)C(=O)N1CCC[C@H]1C(=O)N[C@@H](Cc1ccccc1)C(=O)Nc1ccc([N+](=O)[O-])cc1 [MeO-Suc-Ala-Ala-Pro-Phe-pNA] (MeOSuc-AAPF-pNA)
SUBJECT_OF_TEST: cercarial protease (Schistosoma mansoni)
Km: 119 µM

--- query ---
// returns reported Km for input CCCC[C@H](NC(=O)[C@@H]1CCCN1C(=O)[C@H](C)NC(=O)[C@H](C)NC(=O)CCC(=O)OC)C(=O)Nc1ccc([N+](=O)[O-])cc1 [MeO-Suc-Ala-Ala-Pro-Nle-pNA] (MeOSuc-AAP[Nle]-pNA) 300 µM

Taken from patent US5284829A.
